Target Or Test System: Human AMPK α2β2γ1 (Homo sapiens, UniProt O43741+P54646)
Construct: The full length cDNAs of human AMPK β2 (NM_005399.3) and human AMPK α2 (NM_006252.3); The full length cDNAs of human AMPK β2 (NM_005399.3); the full length cDNA of human AMPK γ1 (NM_002733.3) had been inserted into pET28b(+); 6xHis (N); made in house; host or cells: Escherichia coli BL21 CodonPlus (DE3)-RTL (AMPK); BL21 Star (DE3) (CaMKKβ)
Sequence (P54646 whole entry): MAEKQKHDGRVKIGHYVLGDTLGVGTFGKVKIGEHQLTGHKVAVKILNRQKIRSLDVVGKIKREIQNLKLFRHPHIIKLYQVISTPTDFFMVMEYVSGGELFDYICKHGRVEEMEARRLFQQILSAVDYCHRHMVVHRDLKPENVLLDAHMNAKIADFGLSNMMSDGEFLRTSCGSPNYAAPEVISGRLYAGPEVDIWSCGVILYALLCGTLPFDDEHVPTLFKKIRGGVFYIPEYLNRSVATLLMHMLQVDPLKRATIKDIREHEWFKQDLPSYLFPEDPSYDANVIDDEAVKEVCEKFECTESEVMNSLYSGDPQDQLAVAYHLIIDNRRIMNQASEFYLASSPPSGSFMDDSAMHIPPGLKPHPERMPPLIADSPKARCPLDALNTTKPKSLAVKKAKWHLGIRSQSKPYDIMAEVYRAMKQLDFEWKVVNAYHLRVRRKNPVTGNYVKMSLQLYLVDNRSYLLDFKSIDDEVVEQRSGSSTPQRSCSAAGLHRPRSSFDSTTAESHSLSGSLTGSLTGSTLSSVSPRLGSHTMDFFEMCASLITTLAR
Sequence (O43741 whole entry): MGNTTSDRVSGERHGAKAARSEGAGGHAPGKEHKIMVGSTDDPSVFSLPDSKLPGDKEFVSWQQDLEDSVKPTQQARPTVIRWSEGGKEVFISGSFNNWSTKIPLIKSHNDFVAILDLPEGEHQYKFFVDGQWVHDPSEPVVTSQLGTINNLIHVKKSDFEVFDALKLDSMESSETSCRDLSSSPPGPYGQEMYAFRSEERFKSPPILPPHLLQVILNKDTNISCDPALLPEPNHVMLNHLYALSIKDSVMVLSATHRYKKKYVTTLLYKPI
Sequence (P54619 whole entry partner): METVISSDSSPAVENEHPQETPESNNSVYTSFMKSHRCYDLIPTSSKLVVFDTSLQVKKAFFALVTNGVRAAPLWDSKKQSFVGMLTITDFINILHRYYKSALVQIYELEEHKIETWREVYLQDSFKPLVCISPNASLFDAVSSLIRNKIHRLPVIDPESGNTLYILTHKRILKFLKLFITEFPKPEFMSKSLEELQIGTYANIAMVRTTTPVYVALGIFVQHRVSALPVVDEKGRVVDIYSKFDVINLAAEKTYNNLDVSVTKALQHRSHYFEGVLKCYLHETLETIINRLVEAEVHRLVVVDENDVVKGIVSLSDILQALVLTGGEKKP
Assay Protocol: Test Example 2: evaluation of an activator for AMP-activated protein kinase (AMPK), human AMPK α2β2γ1 phosphorylated with CaMKK2, FL-Peptide 7 mobility shift
Type: biochemical
Measurement Context: human AMPK α2β2γ1, relative to control (100%)
Source text: The full length cDNAs of human AMPK β2 (NM_005399.3) and human AMPK α2 (NM_006252.3) were inserted into the MCS1 and MCS2 of the pETDuet-1 vector to prepare a human AMPK β2 and human AMPK α2 (6× His tag at the 5′ terminus) expressing plasmid. […] To detect phosphorylated fluorescent substrates, the reaction liquid was applied to a measuring device, LabChip EZ Reader II manufactured by Caliper Life Science, Inc., for detecting fluorescence by using differences in mobility due to differences in charge. […]
Short version: Emax (maximum rate of increase in activity within the measurement range) at least 500% is Yes, less is No.

Compound	Assigned Category
CS(=O)(=O)N1C2C=C(c3ccc(-c4nc5cc(O[C@@H]6CO[C@H]7[C@@H]6OC[C@H]7O)[nH]c5cc4F)cc3)CC1CC2 (stereo partly drawn) [Compound I-3-4]	Yes
O[C@@H]1CO[C@H]2[C@@H]1OC[C@H]2Oc1[nH]c2cc(Cl)c(-c3ccc(N4CCOCC4)cc3)nc2c1Br [Compound I-2-9]	No
O[C@@H]1CO[C@H]2[C@@H]1OC[C@H]2Oc1[nH]c2cc(Cl)c(-c3ccc(N4CCOCC4)cc3)nc2c1F [Compound I-2-8]	No

---

Target Or Test System: Human AMPK α2β2γ1 (Homo sapiens, UniProt O43741+P54646)
Construct: The full length cDNAs of human AMPK β2 (NM_005399.3) and human AMPK α2 (NM_006252.3); The full length cDNAs of human AMPK β2 (NM_005399.3); the full length cDNA of human AMPK γ1 (NM_002733.3) had been inserted into pET28b(+); 6xHis (N); made in house; host or cells: Escherichia coli BL21 CodonPlus (DE3)-RTL (AMPK); BL21 Star (DE3) (CaMKKβ)
Assay Protocol: Test Example 2: evaluation of an activator for AMP-activated protein kinase (AMPK), human AMPK α2β2γ1 phosphorylated with CaMKK2, FL-Peptide 7 mobility shift
Type: biochemical
Measurement Context: human AMPK α2β2γ1, 0.2 mM ATP final, 25° C., 2 hours
Short version: EC150 (compound concentration showing 150% relative to the control (100%)) at least 10 nM is T, less is F.

>>> print(df.to_string())
                                   compound                     target_or_test_system  assigned_category
0  CS(C)(=O)=Nc1ccc(-c2ccc(-c3nc4cc(O[C@@H]5CO[C@H]6[C@@H]5OC[C@H]6O)[nH]c4cc3F)cc2)nc1  Human AMPK α2β2γ1 (Homo sapiens, UniProt O43741+P54646)                  F
1  O=C(O)C1CC=C(c2cc(F)c(-c3nc4cc(O[C@H]5CCOC5)[nH]c4cc3Cl)c(F)c2)CC1 (stereo partly drawn)  Human AMPK α2β2γ1 (Homo sapiens, UniProt O43741+P54646)                  T
2  O[C@@H]1CO[C@H]2[C@@H]1OC[C@H]2Oc1[nH]c2cc(Cl)c(-c3c(F)cc(C4=CCOCC4)cc3F)nc2c1Cl  Human AMPK α2β2γ1 (Homo sapiens, UniProt O43741+P54646)                  T
3  CS(C)(=O)=Nc1ccc(-c2ccc(-c3nc4cc(O[C@@H]5CO[C@H]6[C@@H]5OC[C@H]6O)[nH]c4cc3F)c(F)c2)cc1  Human AMPK α2β2γ1 (Homo sapiens, UniProt O43741+P54646)                  F
4  Cn1ncc2cc(-c3nc4cc(O[C@@H]5CO[C@H]6[C@@H]5OC[C@H]6O)[nH]c4cc3F)ccc21  Human AMPK α2β2γ1 (Homo sapiens, UniProt O43741+P54646)                  T
5  Cn1cc(-c2ccc(-c3nc4cc(O[C@@H]5CO[C@H]6[C@@H]5OC[C@H]6O)[nH]c4cc3F)cc2)cn1  Human AMPK α2β2γ1 (Homo sapiens, UniProt O43741+P54646)                  F
